Recorded below: pIC50, system MYLK4 (Homo sapiens (Human), UniProt Q86YV6).
pIC50: −log10 of the molar value. Structures can show the parent of a compound that is named as a salt.

>>> observed("N#C/N=C(/NCc1ccccc1)Nc1ccc(-c2cn[nH]c2)cc1 [Compound 16, hydrochloride]")
"< 5.00"
>>> observed("NCC(C(=O)Nc1ccc(-c2cn[nH]c2)cc1)c1ccc(F)cc1 (stereo not shown) [Compound 8, dihydrochloride]")
"7.00 to 8.00"
>>> observed("NC[C@@H](C(=O)Nc1ccc(-c2cn[nH]c2)cc1)c1ccccc1 [Compound 20, dihydrochloride]")
"7.00 to 8.00"

Attention now turns to another entry.
Observed pIC50 on MYLK4 (Homo sapiens (Human), UniProt Q86YV6) for Cc1ccc(C(=O)Oc2ccc(C(CN)C(=O)Nc3ccc(-c4cn[nH]c4)cc3)cc2)c(C)c1 (stereo not shown) [Compound 10, dihydrochloride] , please.
Sequence (Q86YV6 whole entry): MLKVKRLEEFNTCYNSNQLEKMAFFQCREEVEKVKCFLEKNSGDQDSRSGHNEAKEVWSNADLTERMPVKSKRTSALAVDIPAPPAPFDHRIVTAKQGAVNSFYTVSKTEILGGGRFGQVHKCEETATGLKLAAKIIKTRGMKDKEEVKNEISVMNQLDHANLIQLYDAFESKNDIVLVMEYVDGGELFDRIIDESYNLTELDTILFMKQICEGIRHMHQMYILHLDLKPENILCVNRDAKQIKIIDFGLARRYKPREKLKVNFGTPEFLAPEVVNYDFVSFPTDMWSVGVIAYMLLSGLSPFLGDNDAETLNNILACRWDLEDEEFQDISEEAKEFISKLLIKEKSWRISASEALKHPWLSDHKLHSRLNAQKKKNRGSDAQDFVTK
< 6.00
